Kindly supply the reported melting point values for the records listed here.

[ask] Entry O=P(c1ccccc1)(c1ccccc1)c1ccc(F)cc1F has what melting point?
[reply] 111 to 112 °C

[ask] Entry CC(Oc1cc(-n2nc3n(c2=O)CCCC3)c(Cl)cc1Cl)C(=O)O (stereo not given) has what melting point?
[reply] 183 to 185 °C

[ask] Entry C=C(c1c(C)n(CC)c2ccccc12)c1c(C)n(CC)c2ccccc12 has what melting point?
[reply] 179 to 182 °C

[ask] Entry CC12CC(=O)C3C(CCC4CC(O)CCC43C)C1CCC2C(=O)COc1ccc([N+](=O)[O-])cc1 (stereo not given) has what melting point?
[reply] 186 to 187 °C

[ask] Entry CCOC(=O)[C@H](Cc1ccc(O)cc1)NC(=O)OC(C)(C)C has what melting point?
[reply] 87 to 88 °C

[ask] Entry CC(=O)CC(=O)c1ccc(C)nc1 has what melting point?
[reply] 57 to 58 °C

[ask] Entry O=C1NC(=O)C(Sc2ccc3ccccc3c2Br)S1 (stereo not given) has what melting point?
[reply] 128 to 129 °C

[ask] Entry CC1CCCC(=Cc2ccc(Cl)cc2)C1=O (stereo not given) has what melting point?
[reply] 59 °C

[ask] Entry Cc1ccc(S(=O)(=O)N2[C@H](CCCCc3nnnn3C)CC[C@@H]2c2ccc(F)cc2)cc1 (racemic) has what melting point?
[reply] 77 °C

[ask] Entry Cc1cc(C#N)c(Cl)nc1C has what melting point?
[reply] 83 to 87 °C

====

Kindly supply the reported melting point values for the records listed here.

[ask] Entry COc1ccc(C(=C(c2ccc(C#N)cc2)n2ccnc2)c2ccc(OC)cc2)cc1 has what melting point?
[reply] 174 to 176 °C

[ask] Entry CCn1ncc2c(Cl)c3ccc(OC)cc3nc21 has what melting point?
[reply] 95 to 98 °C

[ask] Entry CNC(=S)NS(=O)(=O)c1cc2c(cc1OC)OC(C)(C)C(NC(=O)c1cc(Cl)ccc1OC)C2 (stereo not drawn) has what melting point?
[reply] 234 to 235 °C

[ask] Entry O=C(c1ccc(Cl)cc1)c1ccc2nccc(C(=O)O)c2c1 has what melting point?
[reply] > 260 °C

[ask] Entry Cn1ccnc1Sc1ccc(Nc2c(C#N)cnc3cc(/C=C/CCCN4CCCC4)ccc23)cc1Cl has what melting point?
[reply] 217 to 222 °C

[ask] Entry COc1c(C2CCN(CCCCOc3ccc(-c4ccc(C#N)cc4)cc3)CC2)ccc2ccccc12 has what melting point?
[reply] 142 °C

[ask] Entry COc1ccc(C2CCN(C(=O)N3CCC(Nc4ccc(CCNC[C@H](O)COc5ccc(O)cc5)cc4)CC3)CC2)cc1OC1CCCC1 has what melting point?
[reply] 92 to 95 °C

[ask] Entry CCOC(=O)/C=C(C)/C=C/C1=C(Br)CCC1 has what melting point?
[reply] 85 to 86 °C

[ask] Entry Cc1ccc(-c2cn3ccc(Cl)cc3n2)cc1C has what melting point?
[reply] 144 °C

[ask] Entry c1cnc2[nH]cc(CN3CCN(c4ccc5c(c4)OCO5)CC3)c2c1 has what melting point?
[reply] 196 to 199 °C

[ask] Entry O=C(O)CCOc1cccc2cccnc12 has what melting point?
[reply] 211 to 213 °C

[ask] Entry CN(C)C(=N)Nc1ccc(F)cc1-c1ccccc1 has what melting point?
[reply] 160 to 161 °C

[ask] Entry CCC(Oc1ccccc1OC)C(=O)OC1CC(O)C=C2C=CC(C)C(CCC3CC(O)CC(=O)O3)C21 (mixture of isomers) has what melting point?
[reply] 116 to 117 °C

[ask] Entry CC(C)(C)c1cc(CC=Cc2ccccc2)c(O)c(C(C)(C)C)c1 has what melting point?
[reply] 89 °C

[ask] Entry CCCCCCN(CCCCCC)C(Nc1ccc(OC)cc1OC)=C1C(=O)COC1=O has what melting point?
[reply] 96 to 98 °C

[ask] Entry COC(=O)CS(=O)(=O)CCCCCCn1nc(-c2ccccc2)c(-c2ccccc2)c1-c1ccccc1 has what melting point?
[reply] 92.5 to 94.5 °C

[ask] Entry CCC(Oc1cc(F)ccc1F)C1=NCCN1 (stereo not drawn) has what melting point?
[reply] 110 °C

[ask] Entry Cc1ccc(C(=O)N[C@H]2CC[C@H](CCN3CCN(c4nccc5c4OCC5)CC3)CC2)cn1 has what melting point?
[reply] 204 °C

[ask] Entry COc1ccc(NS(C)(=O)=O)nc1 has what melting point?
[reply] 156 to 158 °C

[ask] Entry COc1ccc(Cn2cc3nc(Nc4ccc(C(F)(F)F)cc4Cl)nc(OCc4ccccc4)c3n2)cc1 has what melting point?
[reply] 189 to 192 °C

[ask] Entry OCCCOc1ccc(-n2ccnc2)cc1 has what melting point?
[reply] 76 to 78 °C

[ask] Entry Cc1cnc2sc(SCc3ccccc3)nn2c1=O has what melting point?
[reply] 130 to 132 °C

[ask] Entry CC(C)(C)OC(=O)Nc1cc(OCC2COC(C)(C)O2)c(C#Cc2ccccc2)cc1NC(=O)CC(=O)c1cccc(C#N)c1 (stereo not drawn) has what melting point?
[reply] 132 to 134 °C

[ask] Entry CCCCC1C(=O)N(C(=O)NCCc2ccc(S(=O)(=O)NC(=O)NC3CCC(C)CC3)cc2)CCC1C (stereo not drawn) has what melting point?
[reply] 131 to 133 °C

[ask] Entry CCCCNc1nc2cccc(C(=O)OC)c2n1Cc1ccc(-c2ccccc2-c2nnn[nH]2)cc1 has what melting point?
[reply] 163 to 167 °C

[ask] Entry COCC(C)N(C)Cc1c(-c2ccc(NC(=O)NOC)cc2)sc2c1c(=O)n(-c1ccccc1)c(=O)n2Cc1c(F)cccc1F (stereo not drawn) has what melting point?
[reply] 154 to 155 °C

[ask] Entry OCc1ccc(Cl)cc1C(O)c1ccccc1 (stereo not drawn) has what melting point?
[reply] 102 to 107 °C

[ask] Entry CCOC(=O)C(=NO)c1csc(NC(c2ccccc2)(c2ccccc2)c2ccccc2)n1 has what melting point?
[reply] 260 °C

[ask] Entry CCC(=O)C1OC(O)C(O)C1OCc1ccccc1Cl (stereo not drawn) has what melting point?
[reply] 130 to 133 °C

[ask] Entry O=C(O)C1CCCCC1C(=O)CCSSCCC(=O)C1CCCCC1C(=O)O (stereo not drawn) has what melting point?
[reply] 167 to 170 °C

[ask] Entry O=C(NO)[C@H](CNS(=O)(=O)c1ccc(OCc2cc(Cl)cc(Cl)c2)cc1)N1CCCCC1 has what melting point?
[reply] 130 °C

[ask] Entry CCc1cccc(C)c1N(CCCC(=O)O)C(=O)CCN(C(C)=O)c1c(C)cccc1C has what melting point?
[reply] 139 to 141 °C

[ask] Entry COC(=O)c1oc2cc(OCc3nc(-c4ccccc4)oc3C)ccc2c1-c1ccccc1 has what melting point?
[reply] 139 to 140 °C

[ask] Entry CC(COc1ccc(CCO)cc1)NCC(O)c1ccccc1 (stereo not drawn) has what melting point?
[reply] 93 to 96 °C

[ask] Entry CCOC(=O)c1nc(C=Cc2ccc(Cl)cc2)oc1C has what melting point?
[reply] 105 to 106 °C

[ask] Entry Cc1cc2c(s1)C(C(=O)O)CC2=O (stereo not drawn) has what melting point?
[reply] 137 to 139 °C

[ask] Entry CCNC(=O)C(c1ccccc1)N1CCN(c2ccc(NC(=O)c3ccccc3-c3ccc(C(F)(F)F)cc3)cc2)CC1 (stereo not drawn) has what melting point?
[reply] 123 °C

[ask] Entry Cc1nnc2ccc(-c3cccc(NC(=O)C4CC4)c3)nn12 has what melting point?
[reply] 255 to 258 °C

Data provenance: a melting point compilation (Tetko et al.; mined from patent text by program, amines drawn as free bases though some values may be those of a salt)
